Molecular target: epithelial sodium channel (ENaC) (Homo sapiens, UniProt P37088+P51168+P51170)
Sequence (P37088 1-669): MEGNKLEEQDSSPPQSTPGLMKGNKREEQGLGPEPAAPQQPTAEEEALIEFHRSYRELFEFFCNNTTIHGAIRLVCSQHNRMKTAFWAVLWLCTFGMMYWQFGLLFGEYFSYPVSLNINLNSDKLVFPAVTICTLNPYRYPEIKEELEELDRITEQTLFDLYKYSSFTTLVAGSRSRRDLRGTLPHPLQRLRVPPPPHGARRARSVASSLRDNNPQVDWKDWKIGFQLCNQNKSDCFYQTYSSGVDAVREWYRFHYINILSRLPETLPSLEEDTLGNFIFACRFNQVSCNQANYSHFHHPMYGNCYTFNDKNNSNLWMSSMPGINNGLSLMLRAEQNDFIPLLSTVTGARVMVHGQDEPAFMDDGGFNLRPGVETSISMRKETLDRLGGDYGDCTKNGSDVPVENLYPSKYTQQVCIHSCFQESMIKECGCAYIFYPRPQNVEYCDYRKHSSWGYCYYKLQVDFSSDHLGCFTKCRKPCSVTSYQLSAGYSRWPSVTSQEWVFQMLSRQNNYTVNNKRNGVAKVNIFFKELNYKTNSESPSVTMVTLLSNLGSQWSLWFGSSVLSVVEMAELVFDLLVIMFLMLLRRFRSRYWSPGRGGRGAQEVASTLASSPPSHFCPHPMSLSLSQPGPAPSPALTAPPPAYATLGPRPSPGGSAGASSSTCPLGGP
Sequence (P51168 1-640): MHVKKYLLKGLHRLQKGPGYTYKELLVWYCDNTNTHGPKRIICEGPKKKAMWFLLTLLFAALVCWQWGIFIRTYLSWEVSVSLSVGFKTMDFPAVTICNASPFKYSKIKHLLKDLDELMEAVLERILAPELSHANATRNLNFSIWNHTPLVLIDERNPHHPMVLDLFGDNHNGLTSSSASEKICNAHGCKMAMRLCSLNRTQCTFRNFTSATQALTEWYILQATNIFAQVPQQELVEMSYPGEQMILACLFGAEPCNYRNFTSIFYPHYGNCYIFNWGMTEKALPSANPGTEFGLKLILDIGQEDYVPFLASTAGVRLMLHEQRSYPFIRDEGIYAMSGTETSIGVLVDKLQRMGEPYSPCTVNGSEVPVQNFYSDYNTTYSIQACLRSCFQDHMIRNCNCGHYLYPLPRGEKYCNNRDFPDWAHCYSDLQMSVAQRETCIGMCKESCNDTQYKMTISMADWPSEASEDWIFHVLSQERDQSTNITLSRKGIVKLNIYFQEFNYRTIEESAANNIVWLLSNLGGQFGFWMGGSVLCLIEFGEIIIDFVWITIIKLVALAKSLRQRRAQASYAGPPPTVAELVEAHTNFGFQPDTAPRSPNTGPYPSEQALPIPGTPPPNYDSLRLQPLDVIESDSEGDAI
Sequence (P51170 1-649): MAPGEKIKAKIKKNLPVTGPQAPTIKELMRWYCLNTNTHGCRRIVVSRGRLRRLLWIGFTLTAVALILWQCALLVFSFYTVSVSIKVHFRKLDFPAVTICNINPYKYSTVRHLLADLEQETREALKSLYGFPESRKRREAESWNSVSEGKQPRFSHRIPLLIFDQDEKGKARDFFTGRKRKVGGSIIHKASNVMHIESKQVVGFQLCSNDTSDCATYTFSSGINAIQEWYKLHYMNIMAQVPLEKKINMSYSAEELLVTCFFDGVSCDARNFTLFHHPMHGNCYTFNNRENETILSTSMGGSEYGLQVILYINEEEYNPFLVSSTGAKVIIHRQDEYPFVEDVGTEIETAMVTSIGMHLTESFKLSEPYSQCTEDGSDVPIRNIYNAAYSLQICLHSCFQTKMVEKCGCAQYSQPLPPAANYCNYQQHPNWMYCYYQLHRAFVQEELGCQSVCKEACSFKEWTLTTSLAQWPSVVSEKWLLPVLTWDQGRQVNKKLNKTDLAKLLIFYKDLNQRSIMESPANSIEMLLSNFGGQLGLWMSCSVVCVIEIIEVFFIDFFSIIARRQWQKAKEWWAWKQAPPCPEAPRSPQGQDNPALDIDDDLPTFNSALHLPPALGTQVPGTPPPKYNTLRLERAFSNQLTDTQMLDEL
Assay: Short circuit current (ISC) measurements in human bronchial epithelial cells, inhibition of amiloride-sensitive ISC
Conditions: inhibition of the amiloride-sensitive ISC; HBECs cultured at air-liquid interface, Ussing chamber, compound added to apical chamber
Counter-ions that a name gives are not always drawn.
assay-metric: IC50 (nM)

Some entries whose results are on file:
C[N+](CCCc1ccc(O)cc1)(CCCc1ccc(O)cc1)CCNC(=O)c1nc(Cl)c(N)nc1N [Example 122, trifluoroacetate]	130
COc1ccc(CCC[N+](C)(CCCc2ccc(OC)cc2)CCNC(=O)c2nc(Cl)c(N)nc2N)cc1 [Example 20, trifluoroacetate]	2
CCOc1ccc(NC(=O)NCCCC[N+](C)(CCCc2ccc(OC)cc2)CCNC(=O)c2nc(Cl)c(N)nc2N)cc1Cl (stereo not shown)	12
COc1ccc(CCC[N+](C)(C)CCNC(=O)c2nc(Cl)c(N)nc2N)cc1	220

P = COc1ccc(CCC[N+](CCCc2ccc(OC)cc2)(CCNC(=O)c2nc(Cl)c(N)nc2N)CC(N)=O)cc1 [Example 22, trifluoroacetate]
Q = CCC[C@H](CNC(=O)c1nc(Cl)c(N)nc1N)[N+](C)(C)C
R = C=CC[N+](CCCc1ccc(OC)cc1)(CCCc1ccc(OC)cc1)CCNC(=O)c1nc(Cl)c(N)nc1N [Example 17, trifluoroacetate]
Problem: Rank descending by IC50. Response field: labels, in requested order.
Result: Q, P, R
(Q: 250 nM, P: 51 nM, R: 7.5 nM)
